// provenance: patent US7964607B2

target: human recombinant PDE9 enzyme (Homo sapiens, UniProt O76083); construct: made in house; host or cells: SF-9 insect cells; experiment: Phosphodiesterase 9 (PDE9) inhibitory activity, Scintillation Proximity (SPA) assay; assay type: biochemical; conditions: human recombinant PDE9 from SF-9 cells; 50 nM [3H]cGMP; room temperature, 30 min; additional compounds Ex. 115-228; read-out: G5678A (U):IC50
Sequence (O76083 whole entry): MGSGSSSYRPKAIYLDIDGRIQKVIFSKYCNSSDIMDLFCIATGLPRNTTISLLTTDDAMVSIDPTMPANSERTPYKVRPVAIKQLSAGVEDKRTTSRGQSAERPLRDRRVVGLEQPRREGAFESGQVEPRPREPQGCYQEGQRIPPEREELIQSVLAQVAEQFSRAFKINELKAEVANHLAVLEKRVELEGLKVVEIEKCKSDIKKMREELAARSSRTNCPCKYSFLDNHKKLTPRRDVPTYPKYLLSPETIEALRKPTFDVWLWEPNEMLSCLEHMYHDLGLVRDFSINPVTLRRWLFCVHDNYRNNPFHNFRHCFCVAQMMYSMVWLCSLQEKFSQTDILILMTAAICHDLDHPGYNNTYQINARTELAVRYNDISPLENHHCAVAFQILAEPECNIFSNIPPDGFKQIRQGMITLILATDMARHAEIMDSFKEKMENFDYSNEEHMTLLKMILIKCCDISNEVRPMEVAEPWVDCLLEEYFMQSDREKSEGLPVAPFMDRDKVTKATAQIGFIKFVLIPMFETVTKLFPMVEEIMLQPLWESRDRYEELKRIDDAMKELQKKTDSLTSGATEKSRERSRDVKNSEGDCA
OBSERVATION TYPE: pIC50
FYI, pIC50 means -log10 of a concentration in mol per litre.

Sample answers from the record:
Value of pIC50 reported for the compound COc1ccc(CN2C[C@@H](C)[C@H](c3nc4c(cnn4C4CCCC4)c(=O)[nH]3)C2)c(OC)c1 (racemic) is 7.16

Value of pIC50 reported for the compound Cc1ccc(CN2C[C@@H](C)[C@H](c3nc4c(cnn4C4CCCC4)c(=O)[nH]3)C2)c(C)c1 (racemic) is 6.93

Value of pIC50 reported for the compound C[C@@H]1CN(Cc2ccc3c(c2)OCCO3)C[C@H]1c1nc2c(cnn2C2CCCC2)c(=O)[nH]1 (racemic) is 7.25

Value of pIC50 reported for the compound C[C@@H]1CN(CCOCc2ccccc2)C[C@H]1c1nc2c(cnn2C2CCCC2)c(=O)[nH]1 (racemic) is 7.28

Value of pIC50 reported for the compound C[C@@H]1CN(Cc2nccs2)C[C@H]1c1nc2c(cnn2C2CCCC2)c(=O)[nH]1 (racemic) is 7.27

Value of pIC50 reported for the compound CCOc1ncccc1CN1C[C@@H](C)[C@H](c2nc3c(cnn3C3CCCC3)c(=O)[nH]2)C1 (racemic) is 7.20

Now look at this one.
Value of pIC50 reported for the compound CCn1nccc1CN1C[C@@H](C)[C@H](c2nc3c(cnn3C3CCCC3)c(=O)[nH]2)C1 (racemic) is 7.84

* * *

biological target: human recombinant PDE9 enzyme (Homo sapiens, UniProt O76083); construct: made in house; host or cells: SF-9 insect cells; experiment: Phosphodiesterase 9 (PDE9) inhibitory activity, Scintillation Proximity (SPA) assay; format: biochemical; details: human recombinant PDE9 from SF-9 cells; 50 nM [3H]cGMP; room temperature, 30 min; additional compounds Ex. 115-228; read-out: G5678A (U):IC50
Each entry below carries its recorded pIC50.
FYI, pIC50 means -log10 of a concentration in mol per litre.

Value of pIC50 reported for the molecule Cc1cc(CN2C[C@@H](C)[C@H](c3nc4c(cnn4C4CCCC4)c(=O)[nH]3)C2)ccn1 (racemic) [Example 116] is 7.47

Value of pIC50 reported for the molecule COc1cccc(F)c1CN1C[C@@H](C)[C@H](c2nc3c(cnn3C3CCCC3)c(=O)[nH]2)C1 (racemic) [Example 146] is 6.78

Value of pIC50 reported for the molecule COc1ccc(CN2C[C@@H](C)[C@H](c3nc4c(cnn4C4CCCC4)c(=O)[nH]3)C2)c(F)c1 (racemic) [Example 129] is 7.14

Value of pIC50 reported for the molecule C[C@@H]1CN(Cc2ccc3c(c2)CCO3)C[C@H]1c1nc2c(cnn2C2CCCC2)c(=O)[nH]1 (racemic) [Example 216] is 7.76

Value of pIC50 reported for the molecule C[C@@H]1CN(Cc2ccccc2Cl)C[C@H]1c1nc2c(cnn2C2CCCC2)c(=O)[nH]1 (racemic) [Example 219] is 7.32

Value of pIC50 reported for the molecule Cc1cc(C)c(CN2C[C@@H](C)[C@H](c3nc4c(cnn4C4CCCC4)c(=O)[nH]3)C2)c(C)c1 (racemic) [Example 191] is 6.70

Now look at this one.
Value of pIC50 reported for the molecule Cc1cccc(CN2C[C@@H](C)[C@H](c3nc4c(cnn4C4CCCC4)c(=O)[nH]3)C2)c1C (racemic) [Example 118] is 7.13

* * *

molecular target: human recombinant PDE9 enzyme (Homo sapiens); construct: made in house; host or cells: SF-9 insect cells; assay: Phosphodiesterase 9 (PDE9) inhibitory activity, Scintillation Proximity (SPA) assay; format: biochemical; conditions: human recombinant PDE9 from SF-9 cells; 50 nM [3H]cGMP; room temperature, 30 min; Examples 3-114; read-out: G5678A (U): IC50
Each entry below carries its recorded IC50.
Respond with the bare value in nM.

Sample answers from the record:
Value of IC50 reported for the compound C[C@@H]1CN(CCc2ccccc2)C[C@H]1c1nc2c(cnn2C2CCCC2)c(=O)[nH]1 (racemic) [Example 24] is 119

Value of IC50 reported for the compound Cc1nccc(CN2C[C@@H](C)[C@H](c3nc4c(cnn4C4CCOCC4)c(=O)[nH]3)C2)n1 [Example 78] is 4.35

Value of IC50 reported for the compound CC[C@@H]1CN(Cc2ccccc2C#N)C[C@H]1c1nc2c(cnn2C2CCOCC2)c(=O)[nH]1 [Example 112] is 1.37

Value of IC50 reported for the compound C[C@@H]1CN(Cc2ccc3nccnc3c2)C[C@H]1c1nc2c(cnn2C2CCCC2)c(=O)[nH]1 (racemic) [Example 13] is 6.61

Value of IC50 reported for the compound C[C@@H]1CN(Cc2cnc3ccccc3c2)C[C@H]1c1nc2c(cnn2C2CCCC2)c(=O)[nH]1 (racemic) [Example 19] is 2.68

Value of IC50 reported for the compound CC(C)n1ncc2c(=O)[nH]c([C@@H]3CN(Cc4ccnc5nccnc45)C[C@H]3C)nc21 [Example 68] is 36.7

Value of IC50 reported for the compound Cc1nccc(CN2C[C@@H](C)[C@H](c3nc4c(cnn4C4CCCC4)c(=O)[nH]3)C2)n1 [Example 53] is 7.3

Value of IC50 reported for the compound O=c1[nH]c([C@@H]2CN(Cc3ccccc3)C[C@H]2C2CC2)nc2c1cnn2C1CCCC1 (racemic) [Example 29] is 2.17

Value of IC50 reported for the compound C[C@@H]1CN(Cc2ccccc2)C[C@H]1c1nc2c(cnn2C2CCC(F)(F)CC2)c(=O)[nH]1 (racemic) [Example 63] is 123

Value of IC50 reported for the compound C[C@@H]1CN(c2nccc(C(F)(F)F)n2)C[C@H]1c1nc2c(cnn2C2CCCC2)c(=O)[nH]1 (racemic) [Example 4] is 624

Others:
Value of IC50 reported for the compound C[C@@H]1CN(Cc2cnc3ccccc3c2)C[C@H]1c1nc2c(cnn2C2CCOCC2)c(=O)[nH]1 [Example 77] is 1.24

Value of IC50 reported for the compound C[C@@H]1CN(c2ncccn2)C[C@H]1c1nc2c(cnn2C2CCCC2)c(=O)[nH]1 (racemic) [Example 5] is 558

Value of IC50 reported for the compound COc1ccc(CN2C[C@@H](C)[C@H](c3nc4c(cnn4C4CCOCC4)c(=O)[nH]3)C2)cn1 [Example 76] is 3.5

Value of IC50 reported for the compound Cc1cc(CN2C[C@@H](C)[C@H](c3nc4c(cnn4C4CCOCC4)c(=O)[nH]3)C2)n(C)n1 [Example 82] is 5.18

Value of IC50 reported for the compound COc1ccccc1CN1C[C@@H](C)[C@H](c2nc3c(cnn3C3CCOCC3)c(=O)[nH]2)C1 [Example 103] is 15.2

* * *

biological target: human recombinant PDE9 enzyme (Homo sapiens, UniProt O76083); construct: made in house; host or cells: SF-9 insect cells; test: Phosphodiesterase 9 (PDE9) inhibitory activity, Scintillation Proximity (SPA) assay; assay type: biochemical; details: human recombinant PDE9 from SF-9 cells; 50 nM [3H]cGMP; room temperature, 30 min; Examples 3-114; read-out: G5678A (U): IC50
Mark 1 (yes) only when IC50 stays strictly below 20 nM. Values equal to the cut-off are 0 (no).

Worked set:
Enquiry: Record CC(C)n1ncc2c(=O)[nH]c([C@@H]3CN(Cc4cnc5ccccc5c4)C[C@H]3C)nc21 (racemic) [Example 34] : is its IC50 strictly below 20 nM?
Return: 1 (yes)

Enquiry: Record C[C@@H]1CN(Cc2ccc3ccccc3n2)C[C@H]1c1nc2c(cnn2C2CCCC2)c(=O)[nH]1 (racemic) [Example 9] : is its IC50 strictly below 20 nM?
Return: 1 (yes)

Enquiry: Record C[C@@H]1CN(Cc2cccnc2)C[C@H]1c1nc2c(cnn2C2CCCC2)c(=O)[nH]1 (racemic) [Example 7] : is its IC50 strictly below 20 nM?
Return: 1 (yes)

Enquiry: Record C[C@@H]1CN(Cc2ccccc2)C[C@H]1c1nc2c(cnn2C2CCC2)c(=O)[nH]1 (racemic) [Example 72] : is its IC50 strictly below 20 nM?
Return: 0 (no)

Enquiry: Record C[C@@H]1CN(Cc2ccc(C(F)(F)F)nc2)C[C@H]1c1nc2c(cnn2C2CCCC2)c(=O)[nH]1 (racemic) [Example 11] : is its IC50 strictly below 20 nM?
Return: 1 (yes)

Enquiry: Record CC(C)n1ncc2c(=O)[nH]c([C@@H]3CN(Cc4ccnc5cccnc45)C[C@H]3C)nc21 [Example 65] : is its IC50 strictly below 20 nM?
Return: 1 (yes)

Enquiry: Record O=c1[nH]c([C@@H]2CN(Cc3ccc4nccnc4c3)C[C@H]2C(F)(F)F)nc2c1cnn2C1CCCC1 (racemic) [Example 52] : is its IC50 strictly below 20 nM?
Return: 0 (no)

Enquiry: Record CC(C)n1ncc2c(=O)[nH]c([C@@H]3CN(Cc4ccc5nccnc5c4)C[C@H]3C)nc21 [Example 36] : is its IC50 strictly below 20 nM?
Return: 1 (yes)

Others:
Enquiry: Record CC(C)n1ncc2c(=O)[nH]c([C@@H]3CN(Cc4cnc5ccccc5c4)C[C@H]3C)nc21 [Example 37] : is its IC50 strictly below 20 nM?
Return: 1 (yes)

Enquiry: Record CC[C@@H]1CN(C(=O)c2cnc3ccccc3n2)C[C@H]1c1nc2c(cnn2C2CCOCC2)c(=O)[nH]1 [Example 110] : is its IC50 strictly below 20 nM?
Return: 1 (yes)

Enquiry: Record O=c1[nH]c(C2CCN(Cc3ccccc3)C2)nc2c1cnn2C1CCCC1 (centres unmarked) [Example 42] : is its IC50 strictly below 20 nM?
Return: 0 (no)
